Origin of measurements: patent US4990518A

Tested on: PAF-induced aggregation of washed rabbit platelets
Experimental protocol: PAF-induced platelet aggregation
Format: cell-based
Condition details: Oryctolagus cuniculus, antagonist 60 sec before PAF (0.2 nM to 0.2 μM), read 60 sec after PAF
pIC50: −log10 of the molar value.
Endpoint label: pIC50

[
  {
    "Smiles string": "O=C(c1ccc(Cn2ccc3ncnc-3c2)o1)N(C1CCCCC1)C1CCCC1",
    "pIC50": "4.00 to 5.00"
  }
]

Param item = CN(C(=O)c1ccc(Cn2ccc3ncnc-3c2)o1)C1CCCCC1 ; retrieve measured pIC50. ~4.00
